# TESTED SYSTEM: BACE1 (Homo sapiens)
# Construct: endogenous in cells
# Sequence (P56817 46-501): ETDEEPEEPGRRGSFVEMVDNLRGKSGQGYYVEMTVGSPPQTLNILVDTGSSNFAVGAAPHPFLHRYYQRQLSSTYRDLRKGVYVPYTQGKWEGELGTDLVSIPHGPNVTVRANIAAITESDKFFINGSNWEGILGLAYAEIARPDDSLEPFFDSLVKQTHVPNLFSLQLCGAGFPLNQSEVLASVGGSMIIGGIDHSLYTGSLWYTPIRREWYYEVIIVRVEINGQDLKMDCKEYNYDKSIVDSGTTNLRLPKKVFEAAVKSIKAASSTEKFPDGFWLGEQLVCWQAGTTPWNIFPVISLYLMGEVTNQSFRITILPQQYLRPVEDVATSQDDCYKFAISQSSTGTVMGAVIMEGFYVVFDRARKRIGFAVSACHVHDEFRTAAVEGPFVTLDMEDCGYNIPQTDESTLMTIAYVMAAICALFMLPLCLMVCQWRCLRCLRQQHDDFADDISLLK
# MEASUREMENT DESCRIPTION: Cellular Aβ-lowering assay (Abeta 40 AlphaLISA, HEK293 APP cells)
# RECORDED CONDITIONS: 18-20 hrs incubation, Aβ40 in culture supernatant, read-out: BACE1 cell act. Aβ40 IC50
pIC50: −log10 of the molar value.
VALUE KIND: pIC50

A selection of reference data follows.
- CC1(C)C(N)=N[C@](C)(c2nc(NC(=O)c3ccc(F)cn3)ccc2F)[C@H]2CC(F)(F)CN=[S@@]21=O [Example 33AA]: 7.05
- CC1(C)C(N)=N[C@](C)(c2nc(NC(=O)c3ncc(Cl)cc3Cl)ccc2F)[C@H]2CC(F)(F)CN=[S@@]21=O [Example 40AA]: 8.31
- CC1(C)C(N)=N[C@](C)(c2nc(NC(=O)c3ccc(C#N)cn3)ccc2F)[C@H]2CC(F)(F)CN=[S@@]21=O [Example 34AA]: 8.01

(a) Cc1cc(C#N)cnc1C(=O)Nc1ccc(F)c([C@@]2(C)N=C(N)C(C)(C)[S@@]3(=O)=NCCC[C@H]23)n1
(b) Cc1c(C(=O)Nc2ccc(F)c([C@@]3(C)N=C(N)C(C)(C)[S@@]4(=O)=NCCC[C@H]34)n2)nc2ccc(Cl)cn12
(c) Cc1cc(C#N)cnc1C(=O)Nc1ccc(F)c([C@@]2(C)N=C(N)C(C)(C)[S@]3(=O)=NCCC[C@@H]23)n1
Task field, ranking: reported pIC50, descending order. Ranked list of labels, please, in the requested order.
a, c, b
(a: 9.22, c: 8.41, b: 7.55)

(a) CC1(C)C(N)=N[C@](C)(c2nc(NC(=O)c3ccc(C#N)cc3Cl)ccc2F)[C@@H]2CCN=[S@@]21=O [Example 31AB]
(b) COc1cnc(C(=O)Nc2ccc(F)c([C@@]3(C)N=C(N)C(C)(C)[S@@]4(=O)=NCC[C@@H]34)n2)cn1 [Example 16AB]
(c) CC1(C)C(N)=N[C@](C)(c2nc(NC(=O)c3ccc(OCC(F)(F)C(F)F)cn3)ccc2F)[C@H]2CC(F)(F)CN=[S@@]21=O [Example 36AA]
Give the ascending ranking of the items by reported pIC50. Form entry: ranked labels (order as requested).
c, a, b
(c: 6.38, a: 7.47, b: 8.07)

(A) COc1cnc(C(=O)Nc2ccc(F)c([C@@]3(C)N=C(N)C(C)(C)[S@@]4(=O)=NCCC[C@@H]34)n2)cn1
(B) Cc1cc(C#N)cnc1C(=O)Nc1ccc(F)c([C@@]2(C)N=C(N)C(C)(C)[S@@]3(=O)=NCCC[C@@H]23)n1
Field: lower pIC50 | Options: A / B Output the label that corresponds to your choice.
A
(A: 7.73, B: 8.64)

====

# TESTED SYSTEM: BACE1 (Homo sapiens)
# Construct: endogenous in cells
# MEASUREMENT DESCRIPTION: Cellular Aβ-lowering assay (Abeta 40 AlphaLISA, HEK293 APP cells)
# RECORDED CONDITIONS: 18-20 hrs incubation, Aβ40 in culture supernatant, read-out: BACE1 cell act. Aβ40 IC50
# Experimental: Cellular Aβ-lowering assay: The Abeta 40 AlphaLISA Assay can be used. […] In a Perkin-Elmer White Optiplate-384 (Cat#6007290), 2 ul culture supernatants were combined with 2 μl of a 10× AlphaLISA Anti-hAβ Acceptor beads+Biotinylated Antibody Anti-Aβ 1-40 Mix (50 g/mL/5 nM). […] Light Emission at 615 nm was then recorded using EnVision-Alpha Reader. Levels of Aβ 40 in the culture supernatants were calculated as percentage of maximum signal (cells treated with 1% DMSO without inhibitor). […]
pIC50: −log10 of the molar value.
VALUE KIND: pIC50

• Cc1cc(C#N)cnc1C(=O)Nc1ccc(F)c([C@@]2(C)N=C(N)C(C)(C)[S@]3(=O)=NCCC[C@H]23)n1 [Example 1BA] = 9.30
• CC1(C)C(N)=N[C@](C)(c2nc(NC(=O)c3ncc(OC(F)F)cc3Cl)ccc2F)[C@H]2CC3(CC3)CN=[S@@]21=O [Example 50AA] = 7.80
• COc1cnc(C(=O)Nc2ccc(F)c([C@@]3(C)N=C(N)C(C)(C)[S@]4(=O)=NCC[C@H]34)n2)cn1 [Example 16BA] = 6.94
• CC1(C)C(N)=N[C@](C)(c2nc(NC(=O)c3ccc(OCF)cn3)ccc2F)[C@H]2CCN=[S@]21=O [Example 13BA] = 6.42
• CC1(C)C(N)=N[C@](C)(c2nc(NC(=O)c3ccc(F)cn3)ccc2F)[C@@H]2CCN=[S@@]21=O [Example 27AB] = 7.82

(a) Cc1cc(C#N)cnc1C(=O)Nc1ccc(F)c([C@@]2(C)N=C(N)C(C)(C)[S@@]3(=O)=NCC[C@@H]23)n1 [Example 9AB]
(b) CC1(C)C(N)=N[C@](C)(c2nc(NC(=O)c3ccc(OCF)cn3)ccc2F)[C@@H]2CCN=[S@@]21=O [Example 13AB]
(c) Cc1cc(F)cnc1C(=O)Nc1ccc(F)c([C@@]2(C)N=C(N)C(C)(C)[S@]3(=O)=NCC[C@H]23)n1 [Example 10BA]
Please produce an ascending ranking of these compounds based on pIC50. Give your ranking as a list of the labels in the requested order.
c, b, a
(c: 6.38, b: 8.01, a: 9.22)

(a) Cc1cc(C#N)cnc1C(=O)Nc1ccc(F)c([C@@]2(C)N=C(N)C(C)(C)[S@@]3(=O)=NCC4(CC4)C[C@H]23)n1 [Example 48AA]
(b) CC1(C)C(N)=N[C@](C)(c2nc(NC(=O)c3ccc(OCC(F)(F)C(F)F)cn3)ccc2F)[C@H]2CCN=[S@]21=O [Example 15BA]
(c) CC1(C)C(N)=N[C@](C)(c2nc(NC(=O)c3ncc(F)cc3Cl)ccc2F)[C@H]2CC(F)(F)CN=[S@@]21=O [Example 41AA]
(d) CC1(C)C(N)=N[C@](C)(c2nc(NC(=O)c3ccc(C#N)cc3)ccc2F)[C@@H]2CCN=[S@@]21=O [Example 30AB]
# rank by pIC50, ascending (min first) # answer = labels listed in requested order
b, c, d, a

(I) Cc1cc(Cl)cnc1C(=O)Nc1ccc(F)c([C@@]2(C)N=C(N)C(C)(C)[S@@]3(=O)=NCC(F)(F)C[C@H]23)n1 [Example 42AA]
(II) CC#Cc1ccc(C(=O)Nc2ccc(F)c([C@@]3(C)N=C(N)C(C)(C)[S@@]4(=O)=NCC(F)(F)C[C@H]34)n2)nc1 [Example 47AA]
(III) Cc1cc(Cl)cnc1C(=O)Nc1ccc(F)c([C@@]2(C)N=C(N)C(C)(C)[S@@]3(=O)=NCC[C@@H]23)n1 [Example 12AB]
Falling order of pIC50, please. List each label, following the requested order.
III, I, II

(1) CC1(C)C(N)=N[C@](C)(c2nc(NC(=O)c3ccc(OCC(F)(F)C(F)F)cn3)ccc2F)[C@@H]2CCN=[S@@]21=O [Example 15AB]
(2) CC1(C)C(N)=N[C@](C)(c2nc(NC(=O)c3ncc(F)cc3Cl)ccc2F)[C@@H]2CCN=[S@@]21=O [Example 11AB]
(3) Cc1cc(C#N)cnc1C(=O)Nc1ccc(F)c([C@@]2(C)N=C(N)C(C)(C)[S@@]3(=O)=NCC(F)(F)C[C@H]23)n1 [Example 32AA]
Please list the entries, largest pIC50 first. Present the labels in the sequence the task asks for.
3, 2, 1
(3: 8.92, 2: 8.46, 1: 6.84)

====

# TESTED SYSTEM: BACE1 (Homo sapiens)
# Construct: endogenous in cells
# MEASUREMENT DESCRIPTION: Cellular Aβ-lowering assay (Abeta 40 AlphaLISA, HEK293 APP cells)
# RECORDED CONDITIONS: 18-20 hrs incubation, Aβ40 in culture supernatant, read-out: BACE1 cell act. Aβ40 IC50
# Experimental: Cellular Aβ-lowering assay: The Abeta 40 AlphaLISA Assay can be used. […] In a Perkin-Elmer White Optiplate-384 (Cat#6007290), 2 ul culture supernatants were combined with 2 μl of a 10× AlphaLISA Anti-hAβ Acceptor beads+Biotinylated Antibody Anti-Aβ 1-40 Mix (50 g/mL/5 nM). […] Light Emission at 615 nm was then recorded using EnVision-Alpha Reader. Levels of Aβ 40 in the culture supernatants were calculated as percentage of maximum signal (cells treated with 1% DMSO without inhibitor). […]
VALUE KIND: IC50 (nM)

As a guide, the following entries are already answered.
* CC1(C)C(N)=N[C@](C)(c2nc(NC(=O)c3ncc(OC(F)F)cc3Cl)ccc2F)[C@@H]2CCN=[S@@]21=O [Example 28AB] | 2.8
* CC1(C)C(N)=N[C@](C)(c2nc(NC(=O)c3ncc(Cl)cc3Cl)ccc2F)[C@@H]2CCN=[S@@]21=O [Example 29AB] | 0.6
* CC1(C)C(N)=N[C@](C)(c2nc(NC(=O)c3ncc(OC(F)F)cc3Cl)ccc2F)[C@H]2CC(F)(F)CN=[S@@]21=O [Example 45AA] | 26.6

(a) CC1(C)C(N)=N[C@](C)(c2nc(NC(=O)c3ncc(C#N)cc3Cl)ccc2F)[C@H]2CC(F)(F)CN=[S@@]21=O [Example 37AA]
(b) CC1(C)C(N)=N[C@](C)(c2nc(NC(=O)c3cnc(OC(F)F)cn3)ccc2F)[C@@H]2CCN=[S@@]21=O [Example 26AB]
Recorded IC50 values differ for a and b ; which one is higher? Your answer should be the label attached to the chosen record.
b

(I) CC1(C)C(N)=N[C@](C)(c2nc(NC(=O)c3cnc(OC(F)F)cn3)ccc2F)[C@H]2CCN=[S@]21=O [Example 26BA]
(II) Cc1cc(C#N)cnc1C(=O)Nc1ccc(F)c([C@@]2(C)N=C(N)C(C)(C)[S@]3(=O)=NCC[C@H]23)n1 [Example 9BA]
// which entry has the larger IC50 value, I or II ? Reply briefly: the label of your chosen item.
I

(I) CC1(C)C(N)=N[C@](C)(c2nc(NC(=O)c3ccc(OC(F)F)cn3)ccc2F)[C@H]2CCN=[S@]21=O [Example 14BA]
(II) CC1(C)C(N)=N[C@](C)(c2nc(NC(=O)c3ncc(Cl)cc3Cl)ccc2F)[C@H]2CCCN=[S@@]21=O [Example 3AA]
Higher IC50 between I and II ? Give the label of your selection.
I

(a) Cc1cc(Cl)cnc1C(=O)Nc1ccc(F)c([C@@]2(C)N=C(N)C(C)(C)[S@]3(=O)=NCC[C@H]23)n1 [Example 12BA]
(b) CC1(C)C(N)=N[C@](C)(c2nc(NC(=O)c3ccc(OC(F)F)cn3)ccc2F)[C@H]2CCCN=[S@@]21=O [Example 7AA]
(c) Cc1cc(F)cnc1C(=O)Nc1ccc(F)c([C@@]2(C)N=C(N)C(C)(C)[S@@]3(=O)=NCC[C@@H]23)n1 [Example 10AB]
Put the entries in order of IC50, starting with the largest number. Write the labels, ordered according to the request.
a, c, b

meta.source: patent US9540397B2
